target: intracellular GCN2 (phosphorylation of the GCN2 substrate eIF2α) (Homo sapiens, UniProt Q9P2K8); assay: GCN2 cellular inhibition assay (AlphaScreen SureFire P-eIF2α Ser51, borrelidin-treated U2OS cells); type: cell-based; details: compounds of Formula IV; biomarker assay, phosphorylated eIF2α Ser51 in borrelidin-treated U2OS cells
Sequence (Q9P2K8 whole entry): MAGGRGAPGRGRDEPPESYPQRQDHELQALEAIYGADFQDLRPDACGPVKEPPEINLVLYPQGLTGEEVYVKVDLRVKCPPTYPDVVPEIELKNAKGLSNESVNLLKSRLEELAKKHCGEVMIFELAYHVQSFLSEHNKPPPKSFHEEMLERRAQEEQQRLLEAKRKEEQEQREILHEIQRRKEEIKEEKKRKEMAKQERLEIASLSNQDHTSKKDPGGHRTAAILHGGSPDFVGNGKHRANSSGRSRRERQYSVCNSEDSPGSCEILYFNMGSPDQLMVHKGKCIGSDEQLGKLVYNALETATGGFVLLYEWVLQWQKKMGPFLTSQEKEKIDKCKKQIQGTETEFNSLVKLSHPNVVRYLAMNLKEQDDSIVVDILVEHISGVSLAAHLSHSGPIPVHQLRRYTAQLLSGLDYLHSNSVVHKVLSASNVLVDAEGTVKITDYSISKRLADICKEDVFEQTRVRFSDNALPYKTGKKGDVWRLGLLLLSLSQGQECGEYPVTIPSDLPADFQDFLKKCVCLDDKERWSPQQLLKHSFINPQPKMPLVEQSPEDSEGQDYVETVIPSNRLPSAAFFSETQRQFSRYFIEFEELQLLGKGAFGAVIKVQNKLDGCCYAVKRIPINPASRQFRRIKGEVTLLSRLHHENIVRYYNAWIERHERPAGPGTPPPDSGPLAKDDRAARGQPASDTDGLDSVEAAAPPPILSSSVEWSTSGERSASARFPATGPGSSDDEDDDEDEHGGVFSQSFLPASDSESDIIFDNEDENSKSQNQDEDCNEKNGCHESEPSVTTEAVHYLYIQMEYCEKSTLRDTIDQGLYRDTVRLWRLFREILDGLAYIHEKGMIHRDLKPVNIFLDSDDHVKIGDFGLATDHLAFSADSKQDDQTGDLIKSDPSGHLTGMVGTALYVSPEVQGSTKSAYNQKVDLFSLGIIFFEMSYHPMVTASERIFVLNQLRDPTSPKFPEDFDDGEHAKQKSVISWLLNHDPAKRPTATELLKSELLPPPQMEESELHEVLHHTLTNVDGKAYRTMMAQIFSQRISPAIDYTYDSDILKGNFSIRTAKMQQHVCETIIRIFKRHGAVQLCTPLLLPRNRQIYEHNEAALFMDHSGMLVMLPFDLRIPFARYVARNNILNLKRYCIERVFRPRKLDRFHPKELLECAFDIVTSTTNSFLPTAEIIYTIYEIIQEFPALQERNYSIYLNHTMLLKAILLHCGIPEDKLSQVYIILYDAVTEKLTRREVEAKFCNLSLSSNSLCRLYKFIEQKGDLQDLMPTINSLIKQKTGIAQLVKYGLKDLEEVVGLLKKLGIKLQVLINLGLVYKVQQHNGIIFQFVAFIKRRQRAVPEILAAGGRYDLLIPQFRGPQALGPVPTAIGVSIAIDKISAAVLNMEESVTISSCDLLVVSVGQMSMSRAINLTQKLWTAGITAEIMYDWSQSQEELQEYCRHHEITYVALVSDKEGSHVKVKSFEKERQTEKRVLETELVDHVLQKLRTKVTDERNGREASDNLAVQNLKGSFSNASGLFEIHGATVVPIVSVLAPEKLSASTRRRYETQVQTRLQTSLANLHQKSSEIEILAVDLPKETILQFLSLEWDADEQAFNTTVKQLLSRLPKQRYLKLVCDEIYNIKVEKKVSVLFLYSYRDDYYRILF
IC50 values by entry

// solved cases for IC50 follow
[[record]]
compound = "Fc1n[nH]cc1C1CCN(c2ccnc(-c3cnc4cnc(C(F)(F)F)cn34)n2)C1 (stereo not shown) [IV-524]"
assay_endpoint = "IC50"
value_measured = "< 0.5 µM"

[[record]]
compound = "CC1CN(c2ccnc(-c3cnc4cnc(Cl)cn34)n2)CC(c2cn[nH]c2)O1 (single isomer, unassigned) [IV-216]"
assay_endpoint = "IC50"
value_measured = "0.5 to 5 µM"


Param item = FC(F)(F)c1cn2c(-c3nccc(N4CCC(c5cn[nH]c5)CC4)n3)cnc2cn1 [IV-680] ; retrieve measured IC50.
0.5 to 5 µM

Param item = Cc1cn2c(-c3nccc(N4CCNC(c5cn[nH]c5)C4C)n3)cnc2cn1 (stereo not shown) [IV-398] ; retrieve measured IC50.
> 5 µM

###

molecular target: UniProt Q9P2K8; assay: GCN2 enzyme inhibition assay (Transcreener ADP2 fluorescence polarization); format: biochemical; conditions: Enzyme activity for compounds of Formula IV; Ki(app), 280 μM ATP, 25° C.
assay-endpoint: Ki

[[record]]
compound = "CC1CCN(c2ccnc(-c3cnc4cnc(C(F)F)cn34)n2)CC1C(N)=O (stereo not shown) [IV-108]"
value_measured = "10 to 100 nM"

[[record]]
compound = "CS(C)(=O)=NC1CC(c2cn[nH]c2)CN(c2ccnc(-c3cnc4cnc(C(F)(F)F)cn34)n2)C1 (single isomer, unassigned) [IV-400]"
value_measured = "10 to 100 nM"

[[record]]
compound = "NC(=O)C1CN(c2ccnc(-c3cnc4cnc(C(F)(F)F)cn34)n2)CCN1 (stereo not shown) [IV-595]"
value_measured = "100 to 1000 nM"


Param item = FC(F)(F)c1cn2c(-c3nccc(N4CCC(c5nnc[nH]5)C4)n3)cnc2cn1 (stereo not shown) [IV-642] ; retrieve measured Ki.
100 to 1000 nM

Param item = CS(=N)(=O)CC1CCN(c2ccnc(-c3cnc4cnc(C(F)(F)F)cn34)n2)C1 (stereo not shown) [IV-607] ; retrieve measured Ki.
100 to 1000 nM

Param item = CC1CN(c2ccnc(-c3cnc4cnc(C(F)(F)F)cn34)n2)CC(c2cn[nH]c2)N1 (stereo not shown) [IV-189] ; retrieve measured Ki.
10 to 100 nM

Param item = C[C@@H]1CN(c2ccnc(-c3cnc4cnc(C(F)(F)F)cn34)n2)C[C@H](c2cn[nH]c2)O1 (racemic) [IV-12] ; retrieve measured Ki.
< 10 nM

Param item = FC(F)(F)c1cn2c(-c3ccnc(N4CCOC(c5cn[nH]c5)C4)n3)cnc2cn1 (single isomer, unassigned) [IV-186] ; retrieve measured Ki.
< 10 nM

###

biological target: GCN2 kinase (Homo sapiens); assay: GCN2 enzyme inhibition assay (Transcreener ADP2 fluorescence polarization); assay type: biochemical; settings: Enzyme activity for compounds of Formula IV; Ki(app), 280 μM ATP, 25° C.
assay-endpoint: Ki

// solved cases for Ki follow
[[record]]
compound = "FC(F)(F)c1cn2c(-c3ccnc(N4CCCC(c5c[nH]cn5)C4)n3)cnc2cn1 (centres unmarked)"
assay_system = "GCN2 kinase (Homo sapiens)"
assay_endpoint = "Ki"
value_measured = "10 to 100 nM"

[[record]]
compound = "O=C1CCCC2CN(c3ccnc(-c4cnc5cnc(Cl)cn45)n3)CCN12 (single isomer, unassigned) [IV-293]"
assay_system = "GCN2 kinase (Homo sapiens)"
assay_endpoint = "Ki"
value_measured = "10 to 100 nM"

[[record]]
compound = "OC1CCN(c2ccnc(-c3cnc4cnc(C(F)(F)F)cn34)n2)C1 (centres unmarked)"
assay_system = "GCN2 kinase (Homo sapiens)"
assay_endpoint = "Ki"
value_measured = "100 to 1000 nM"

[[record]]
compound = "CS(C)(=O)=N[C@@H]1C[C@H](c2cn[nH]c2)CN(c2ccnc(-c3cnc4cnc(C(F)(F)F)cn34)n2)C1 (racemic)"
assay_system = "GCN2 kinase (Homo sapiens)"
assay_endpoint = "Ki"
value_measured = "10 to 100 nM"

[[record]]
compound = "CC1CN(c2ccnc(-c3cnc4cnc(C(F)(F)F)cn34)n2)C(C)C(c2cn[nH]c2)O1 (single isomer, unassigned) [IV-450]"
assay_system = "GCN2 kinase (Homo sapiens)"
assay_endpoint = "Ki"
value_measured = "100 to 1000 nM"

[[record]]
compound = "NC(=O)c1cn2c(-c3nccc(N4CCN5C(=O)CCCC5C4)n3)cnc2cn1 (single isomer, unassigned) [IV-274]"
assay_system = "GCN2 kinase (Homo sapiens)"
assay_endpoint = "Ki"
value_measured = "10 to 100 nM"

[[record]]
compound = "O=C1NCC2CN(c3ccnc(-c4cnc5cnc(C(F)(F)F)cn45)n3)CCN12 (centres unmarked)"
assay_system = "GCN2 kinase (Homo sapiens)"
assay_endpoint = "Ki"
value_measured = "100 to 1000 nM"


Please look at the following compound next.
Param item = CC(=O)N1CCN(c2nccc(-c3cnc4cnc(C(N)=O)cn34)n2)CC1 ; retrieve measured Ki.
10 to 100 nM

Entry source: patent US10988477B2
